- Test system: K562
- Method Summary: Growth inhibition of human K562 cells assessed as cell growth at 10 uM after 48 hrs by sulforhodamine B assay relative to control
- Format: functional
- Details: K562, 48 h, read-out: Activity
Can you tell me growth at 10 µM for the items I'm about to list?
Provide only the numeric value, understood in %.

Measured growth at 10 µM, COc1ccc(Cn2cc(C(=O)N/N=C3/C(=O)Nc4c(F)cccc43)nn2)cc1 : 88

Measured growth at 10 µM, COc1ccc(Cn2cc(C(=O)N/N=C3/C(=O)Nc4c(Cl)cccc43)nn2)cc1 : 89.2

Measured growth at 10 µM, COc1ccc(Cn2cc(C(=O)N/N=C3/C(=O)Nc4ccccc43)nn2)cc1 : 90.5

Measured growth at 10 µM, COc1ccc(Cn2cc(C(=O)N/N=C3/C(=O)Nc4c(C)cccc43)nn2)cc1 : 63.2

====

Can you tell me growth at 10 µM for the items I'm about to list?
- System: UACC-257
- Method Summary: Growth inhibition of human UACC257 cells assessed as cell growth at 10 uM after 48 hrs by sulforhodamine B assay relative to control
- Type: functional
- Details: UACC-257, 48 h, read-out: Activity
Field note: include the unit after the figure.

Measured growth at 10 µM, COc1ccc(Cn2cc(C(=O)N/N=C3/C(=O)Nc4ccccc43)nn2)cc1 : 102%

Measured growth at 10 µM, COc1ccc(Cn2cc(C(=O)N/N=C3/C(=O)Nc4ccc(Br)cc43)nn2)cc1 : 102%

Measured growth at 10 µM, COc1ccc(Cn2cc(C(=O)N/N=C3/C(=O)Nc4c(C)cccc43)nn2)cc1 : 93.7%

Measured growth at 10 µM, COc1ccc(Cn2cc(C(=O)N/N=C3/C(=O)Nc4ccc(Cl)cc43)nn2)cc1 : 113%

====

Can you tell me growth at 10 µM for the items I'm about to list?
- System: K562
- Method Summary: Growth inhibition of human K562 cells assessed as cell growth at 10 uM after 48 hrs by sulforhodamine B assay relative to control
- Assay type: functional
- Details: K562, 48 h, read-out: Activity
Provide only the numeric value, understood in %.

Measured growth at 10 µM, COc1ccc(Cn2cc(C(=O)N/N=C3/C(=O)Nc4ccc(C)cc43)nn2)cc1 : 87.8

Measured growth at 10 µM, COc1ccc(Cn2cc(C(=O)N/N=C3/C(=O)Nc4ccc(Br)cc43)nn2)cc1 : 88.1

Measured growth at 10 µM, COc1ccc(Cn2cc(C(=O)N/N=C3/C(=O)Nc4ccc(Cl)cc43)nn2)cc1 : 91.2

Measured growth at 10 µM, COc1ccc(Cn2cc(C(=O)N/N=C3/C(=O)Nc4ccc(F)cc43)nn2)cc1 : 97.2

Measured growth at 10 µM, COc1ccc(Cn2cc(C(=O)N/N=C3/C(=O)Nc4ccc(F)c(Cl)c43)nn2)cc1 : 90.8

====

- Test system: OVCAR-3
- Method Summary: Growth inhibition of human OVCAR3 cells assessed as cell growth at 10 uM after 48 hrs by sulforhodamine B assay relative to control
- Assay type: functional
- Details: OVCAR-3, 48 h, read-out: Activity
Readout Type: growth at 10 µM (%)
Provide only the numeric value, understood in %.

Measured growth at 10 µM, COc1ccc(Cn2cc(C(=O)N/N=C3/C(=O)Nc4ccc(C)cc43)nn2)cc1 : 108

Measured growth at 10 µM, COc1ccc(Cn2cc(C(=O)N/N=C3/C(=O)Nc4c(Cl)cccc43)nn2)cc1 : 113

Measured growth at 10 µM, COc1ccc(Cn2cc(C(=O)N/N=C3/C(=O)Nc4ccc(F)cc43)nn2)cc1 : 112

Measured growth at 10 µM, COc1ccc(Cn2cc(C(=O)N/N=C3/C(=O)Nc4ccc(F)c(Cl)c43)nn2)cc1 : 105

Measured growth at 10 µM, COc1ccc(Cn2cc(C(=O)N/N=C3/C(=O)Nc4ccccc43)nn2)cc1 : 112
